assay: rat 28-day GLP repeat dose PO study (toxicokinetics); format: in vivo; details: female, rat, in vivo, po, 500 mg/kg
property name: Cmax (µg/mL)
One number for each entry, in µg/mL.

Briefly, Cmax measured for CC1(C)SC(Nc2ccccc2O)=N[C@@H]1C(=O)O.Cl : 74.8
